Target: CYP17A1 17α-hydroxylase (Homo sapiens)
Construct: expressed in transfected cells; host or cells: COS-1 cells, transient transfection, microsomal fraction
Sequence (P05093 whole entry): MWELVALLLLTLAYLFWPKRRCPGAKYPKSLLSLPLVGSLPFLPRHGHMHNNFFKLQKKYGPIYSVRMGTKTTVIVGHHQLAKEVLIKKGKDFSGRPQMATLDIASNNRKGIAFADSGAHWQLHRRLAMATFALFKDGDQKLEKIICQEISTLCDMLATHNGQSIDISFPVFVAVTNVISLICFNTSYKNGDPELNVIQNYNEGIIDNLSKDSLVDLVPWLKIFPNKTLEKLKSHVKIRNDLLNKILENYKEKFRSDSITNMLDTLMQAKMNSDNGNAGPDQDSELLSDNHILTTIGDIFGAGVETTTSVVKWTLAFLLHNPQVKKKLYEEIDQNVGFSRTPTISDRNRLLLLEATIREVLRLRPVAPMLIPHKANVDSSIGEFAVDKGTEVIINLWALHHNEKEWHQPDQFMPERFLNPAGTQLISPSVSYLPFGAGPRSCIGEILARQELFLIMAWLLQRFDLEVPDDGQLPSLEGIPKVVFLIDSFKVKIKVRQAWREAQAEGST
Assay: CYP17A1 17α-hydroxylase activity assay, microsomes of transfected COS-1 cells
Format: biochemical
Settings: cell-free; read-out: IC50 against 17α-hydroxylase
MEASURED PROPERTY: IC50 (nM)
// units = nM; emit number, no label

Requested field: IC50. Item: CCCN(CCOc1c(Cl)cc(Cl)cc1Cl)C(=O)n1ccnc1 [prochloraz]
94.5

Values compiled from paper PMC10458698.
